All values here come from paper PMC9586895.

- TEST METHOD NOTES: Pharmacokinetic study in Wistar rats, plasma levels by HPLC/MS, non-compartmental analysis
- Assay type: in vivo
- EXPERIMENTAL CONDITIONS: Wistar, rat, plasma, po, given alone (ESO 5 mg/kg; AP 250 mcg/kg)
Measured AUC(0-inf) of individual entries
Kindly provide the numeric value in ng·h/mL only, without the unit symbol.

*Q* # input compound: COc1ccc(-n2nc(C(N)=O)c3c2C(=O)N(c2ccc(N4CCCCC4=O)cc2)CC3)cc1 ; wanted: its AUC(0-inf)
*A* 1540

*Q* Can you share its AUC(0-inf)? I mean this compound: COc1ccc2[nH]c([S+]([O-])Cc3ncc(C)c(OC)c3C)nc2c1 (centres unmarked)
*A* 4510

###

// reported Tmax per item
- TEST METHOD NOTES: Pharmacokinetic study in Wistar rats, plasma levels by HPLC/MS, non-compartmental analysis
- Format: in vivo
- EXPERIMENTAL CONDITIONS: Wistar, rat, plasma, po, ESO 5 mg/kg + AP 250 mcg/kg in combination

COMPOUND | OBS VALUE
COc1ccc(-n2nc(C(N)=O)c3c2C(=O)N(c2ccc(N4CCCCC4=O)cc2)CC3)cc1 [AP] | 1 h

// moving on: another record for Tmax
*Q* May I ask what Tmax has been recorded for COc1ccc2[nH]c([S+]([O-])Cc3ncc(C)c(OC)c3C)nc2c1 (centres unmarked) [ESO] ?
*A* 4 h

###

- TEST METHOD NOTES: Pharmacokinetic study in Wistar rats, plasma levels by HPLC/MS, non-compartmental analysis
- Format: in vivo
- EXPERIMENTAL CONDITIONS: Wistar, rat, plasma, po, 5 mg/kg, oral ESO 5 mg/kg alone; read-out: elimination rate constant calculated from late concentrations of the plasma level time profile (linear model) (converted)
OUTCOME MEASURE: k el (s⁻¹)
The response must be a number in s⁻¹ with no trailing unit.

*Q* Which k el reading was recorded for the compound COc1ccc2[nH]c([S+]([O-])Cc3ncc(C)c(OC)c3C)nc2c1 (stereo not shown) ?
*A* 4.53e-05

###

- TEST METHOD NOTES: Pharmacokinetic study in Wistar rats, plasma levels by HPLC/MS, non-compartmental analysis
- Type: in vivo
- EXPERIMENTAL CONDITIONS: Wistar, rat, plasma, po, given alone (ESO 5 mg/kg; AP 250 mcg/kg)
Tmax values for the compounds below.
Number only, in h; omit the unit.

COMPOUND | OUTCOME MEASURE | UNIT ABBREVIATION | OBS VALUE
COc1ccc(-n2nc(C(N)=O)c3c2C(=O)N(c2ccc(N4CCCCC4=O)cc2)CC3)cc1 | Tmax | h | 6

// below: Tmax requested for another compound
*Q* Consider the compound shown here: COc1ccc2[nH]c([S+]([O-])Cc3ncc(C)c(OC)c3C)nc2c1 (centres unmarked) What is its recorded Tmax?
*A* 2

###

- TEST METHOD NOTES: Pharmacokinetic study in Wistar rats, plasma levels by HPLC/MS, non-compartmental analysis
- Type: in vivo
- EXPERIMENTAL CONDITIONS: Wistar, rat, plasma, oral; read-out: absolute bioavailability (F)
OUTCOME MEASURE: bioavailability (%)
Give a bare numeral; the unit % is implied.

*Q* # get_value(readout='bioavailability', item= COc1ccc2[nH]c([S+]([O-])Cc3ncc(C)c(OC)c3C)nc2c1 (stereo not shown) [ESO] )
*A* 62

###

k el values for the compounds below.
- TEST METHOD NOTES: Pharmacokinetic study in Wistar rats, plasma levels by HPLC/MS, non-compartmental analysis
- Type: in vivo
- EXPERIMENTAL CONDITIONS: Wistar, rat, plasma, po, given alone (ESO 5 mg/kg; AP 250 mcg/kg), NCA; read-out: Kel (app) (converted)
Report as a plain number; the unit s⁻¹ is understood.

COMPOUND | k el [s⁻¹]
COc1ccc(-n2nc(C(N)=O)c3c2C(=O)N(c2ccc(N4CCCCC4=O)cc2)CC3)cc1 | 1.17e-05

Query compound follows.
*Q* Recorded k el for COc1ccc2[nH]c([S+]([O-])Cc3ncc(C)c(OC)c3C)nc2c1 (centres unmarked) , please?
*A* 4.08e-05

###

Catalogue of AUC(0-t) values
- TEST METHOD NOTES: Pharmacokinetic study in Wistar rats, plasma levels by HPLC/MS, non-compartmental analysis
- Format: in vivo
- EXPERIMENTAL CONDITIONS: Wistar, rat, plasma, po, ESO 5 mg/kg + AP 250 mcg/kg in combination; read-out: AUC0–24
Give the value in ng·h/mL but do not write ng·h/mL after it.

*Q* Value lookup for AUC(0-t); key = COc1ccc2[nH]c([S+]([O-])Cc3ncc(C)c(OC)c3C)nc2c1 (centres unmarked)
*A* 3250

*Q* // returns reported AUC(0-t) for input COc1ccc(-n2nc(C(N)=O)c3c2C(=O)N(c2ccc(N4CCCCC4=O)cc2)CC3)cc1
*A* 1270

###

- TEST METHOD NOTES: Pharmacokinetic study in Wistar rats, plasma levels by HPLC/MS, non-compartmental analysis
- Type: in vivo
- EXPERIMENTAL CONDITIONS: Wistar, rat, plasma, po, given alone (ESO 5 mg/kg; AP 250 mcg/kg)
OUTCOME MEASURE: half-life (h)
Please state the figure in h; there is no need to write the unit.

*Q* Any idea what its half-life is? The compound is COc1ccc(-n2nc(C(N)=O)c3c2C(=O)N(c2ccc(N4CCCCC4=O)cc2)CC3)cc1
*A* 16.6

###

- TEST METHOD NOTES: Pharmacokinetic study in Wistar rats, plasma levels by HPLC/MS, non-compartmental analysis
- Assay type: in vivo
- EXPERIMENTAL CONDITIONS: Wistar, rat, plasma, po, ESO 5 mg/kg + AP 250 mcg/kg in combination
Below is a list of entries, each paired with its recorded half-life value.
Give the value, in units of h, as a plain number.

COMPOUND | half-life (h)
COc1ccc2[nH]c([S+]([O-])Cc3ncc(C)c(OC)c3C)nc2c1 (centres unmarked) [ESO] | 5.9

*Q* Which half-life reading was recorded for the compound COc1ccc(-n2nc(C(N)=O)c3c2C(=O)N(c2ccc(N4CCCCC4=O)cc2)CC3)cc1 [AP] ?
*A* 9.6

###

- TEST METHOD NOTES: Pharmacokinetic study in Wistar rats, plasma levels by HPLC/MS, non-compartmental analysis
- Type: in vivo
- EXPERIMENTAL CONDITIONS: Wistar, rat, plasma, iv, IV (ESO 5 mg/kg; AP 125 mcg/kg)
OUTCOME MEASURE: half-life (h)
Enter your answer as a number in h; do not include the unit.

COMPOUND | half-life [h]
COc1ccc(-n2nc(C(N)=O)c3c2C(=O)N(c2ccc(N4CCCCC4=O)cc2)CC3)cc1 [AP] | 14.9

*Q* Look up half-life for this compound: COc1ccc2[nH]c([S+]([O-])Cc3ncc(C)c(OC)c3C)nc2c1 (centres unmarked) [ESO]
*A* 4.8

###

- TEST METHOD NOTES: Pharmacokinetic study in Wistar rats, plasma levels by HPLC/MS, non-compartmental analysis
- Assay type: in vivo
- EXPERIMENTAL CONDITIONS: Wistar, rat, plasma, iv, IV (ESO 5 mg/kg; AP 125 mcg/kg)
Examples of compounds with documented MRT inf follow.
Report as a plain number; the unit h is understood.

COMPOUND | OBS VALUE
COc1ccc2[nH]c([S+]([O-])Cc3ncc(C)c(OC)c3C)nc2c1 (centres unmarked) | 7.4

Moving on to another compound below.
*Q* Quick one: MRT inf of COc1ccc(-n2nc(C(N)=O)c3c2C(=O)N(c2ccc(N4CCCCC4=O)cc2)CC3)cc1 ?
*A* 21.5

###

- TEST METHOD NOTES: Pharmacokinetic study in Wistar rats, plasma levels by HPLC/MS, non-compartmental analysis
- Format: in vivo
- EXPERIMENTAL CONDITIONS: Wistar, rat, plasma, 250 mcg/kg; oral vs IV, drug given alone; F=AUCoral/AUCiv∙Doseiv/Doseoral; read-out: absolute bioavailability (F)
OUTCOME MEASURE: bioavailability (%)
Number only, in %; omit the unit.

*Q* // query bioavailability value for entry COc1ccc(-n2nc(C(N)=O)c3c2C(=O)N(c2ccc(N4CCCCC4=O)cc2)CC3)cc1
*A* 42

###

- TEST METHOD NOTES: Pharmacokinetic study in Wistar rats, plasma levels by HPLC/MS, non-compartmental analysis
- Type: in vivo
- EXPERIMENTAL CONDITIONS: Wistar, rat, plasma, po, given alone (ESO 5 mg/kg; AP 250 mcg/kg); read-out: AUC0–24
Items are presented alongside their recorded AUC(0-t).
Lab book: enter the figure in ng·h/mL, no units written.

COMPOUND | UNIT ABBREVIATION | AUC(0-t)
COc1ccc(-n2nc(C(N)=O)c3c2C(=O)N(c2ccc(N4CCCCC4=O)cc2)CC3)cc1 | ng·h/mL | 959

The record that follows has no AUC(0-t) shown yet.
*Q* Name the reported AUC(0-t) value associated with the compound COc1ccc2[nH]c([S+]([O-])Cc3ncc(C)c(OC)c3C)nc2c1 (centres unmarked)
*A* 4380
